assay: Drug repurposing screens with cells derived from glioblastoma tumor samples (AID 1345199); settings: GBM patient neurospheres viability, ATP luminescence, 48 h; at 21.3 µM (top of the series); tumour line A; further: on the % scale 0 is the no-effect control and ±100 the full control effect
Results filed as inconclusive are left out.

- compound: "CS(=O)(=O)c1ccc([C@@H](O)[C@@H](CO)NC(=O)C(Cl)Cl)cc1"
  activity, negative = cell killing / %: -19.8
- compound: "CCn1cc(C(=O)O)c(=O)c2cc(F)c(N3CCNCC3)nc21"
  activity, negative = cell killing / %: -3.28
- compound: "NS(=O)(=O)c1cc2c(cc1Cl)NC(C(Cl)Cl)NS2(=O)=O (configuration not stated)"
  activity, negative = cell killing / %: -6.45
- compound: "COc1ccccc1OCC(O)COC(N)=O (configuration not stated)"
  activity, negative = cell killing / %: -18
- compound: "Cn1c(=O)c2c(ncn2CC(O)CO)n(C)c1=O (configuration not stated)"
  activity, negative = cell killing / %: 3.02
- compound: "Nc1ccc(S(=O)(=O)Nc2ccccn2)cc1"
  activity, negative = cell killing / %: -9.41
- compound: "CO[C@@H]1[C@@H](OC(N)=O)[C@@H](O)[C@H](Oc2ccc3c(O)c(NC(=O)c4ccc(O)c(CC=C(C)C)c4)c(=O)oc3c2C)OC1(C)C"
  activity, negative = cell killing / %: -27.7

FYI, the data here is from PubChem BioAssay (NCATS).
